# experiment: NCI Yeast Anticancer Drug Screen. Data for the mec2-1 strain (AID 157)
# measurement.context: S. cerevisiae mec2-1 strain, at 50.0 µM, stronger effect = higher value
This is part of a sample that, as a whole, favours compounds with a hit. Of some 79,000 tested, about 15% had one in any assay.
test.readout: growth inhibition (%)
Give bare numbers, in %.

* C[N+]1(C(CO)Cc2c[nH]c3ccccc23)Cc2ccccc2C1 (configuration not stated) | 14.6

Would you be so kind as to report growth inhibition for each listed record?
1. Cc1cc(C)n(-c2ccncc2[N+](=O)[O-])n1
2. C=CCOC(=O)c1cccc(C)c1

## Output
1. 17.9
2. 0.3

Would you be so kind as to report growth inhibition for each listed record?
1. O=c1[nH]cnc2c1ncn2CCCc1ccccc1
2. Cc1nc(N=C(N)N)nc2ccccc12
3. O=c1oc2ccccc2c(N2CCCCC2)c1Cl
4. O=C1NC(=O)C(c2ccsc2)(c2cccs2)N1 (configuration not stated)

## Output
7.5
-8.45
40.6
-9.3

====

# experiment: NCI Yeast Anticancer Drug Screen. Data for the mlh1 rad18 strain (AID 175)
# measurement.context: S. cerevisiae mlh1 rad18 strain growth inhibition; at 50.0 µM; stronger effect = higher value
This is part of a sample that, as a whole, favours compounds with a hit. Of some 79,000 tested, about 15% had one in any assay.
Please respond with reported growth inhibition for every item in the list.
Answers are plain numbers, in %.

Some solved entries appear below for comparison.
- Cn1cnnc1Sc1c([N+](=O)[O-])nc(-c2ccc([N+](=O)[O-])cc2)n1C: 8.95
- CCCCCCCC/C=C/CCCCCCCC(=O)OCC(C)(C)N1C(=O)CCC1=O: -7.3
- Cc1cc(N(CCC#N)CCC#N)ccc1N=Nc1cc(Cl)ccc1Cl: 16.6
- CC1=C(c2cc(C(=O)Nc3cccc(Cl)c3)nc(NC#N)n2)Sc2ccccc2N1: 33.5
- Cc1ccc(NC(=O)c2ccc(Cl)cc2)cc1Cl: -2.3
- COC(=O)c1nc(N)nc(C(=O)OC)c1C(=O)C(C)C: -1
- NCCCn1cnc2c(N)ncnc21: 0.65
- CC12CCC(=O)C=C1CCC1C2C(O)CC2(C)C1CCC2(O)C(=O)COC(=O)C1C2C=CC(C2)C1C(=O)O (stereo not drawn): 25.1

Would you be so kind as to report growth inhibition for each listed record?
1. CC(=O)C(CN1CCOCC1)C(C)(C)O (stereo not drawn)
2. CCC[N+](C)(C)C
3. CC(=O)OCC1OC(n2c(-c3ccccc3)c(N=Nc3ccccc3)c(C)c(C#N)c2=S)C(OC(C)=O)C(OC(C)=O)C1OC(C)=O (stereo not drawn)
4. CC1=C(C(=O)CC(=O)C(=O)Nc2cccc(C)c2C)Sc2ccccc2N1

## Output
[12.4, -5.45, 9.75, -12.5]

====

# experiment: NCI Yeast Anticancer Drug Screen. Data for the sgs1 mgt1 strain (AID 161);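 further: 0% = growth of cultures given vehicle only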
# measurement.context: S. cerevisiae sgs1 mgt1 strain, at 50.0 µM, stronger effect = higher value
Compounds without any hit were thinned out: in the full panel of roughly 79,000, 15% have a hit. Where a SMILES comes first, the peptide text is derived from it. The star is where a group is joined. Trt = c1ccc(C(c2ccccc2)(c2ccccc2)*)cc1
test.readout: growth inhibition (%)
One number for each entry, in %.

• CN(C)S(=O)(=O)C(c1ccccc1)C(c1ccccc1)S(=O)(=O)N(C)C (configuration not stated) = 27.1
• CCOC(=O)c1sc(SC)nc1NC(=O)c1ccc(Cl)cc1 = -49.6
• CCOC(=O)C/C(C)=N\NC(N)=O = 44.8
• On1c(-c2ccccc2)c(-c2c(-c3ccccc3)n(O)c3ccccc23)c2ccccc21 = -4.9
• c1cc2c(cc1CC1CO1)OCO2 (configuration not stated) = 0.85

Would you be so kind as to report growth inhibition for each listed record?
1. O=Cc1ccc(O)cn1
2. COC(=O)C(NC(=O)C(N)CSC(c1ccccc1)(c1ccccc1)c1ccccc1)C(C)C (configuration not stated) (H-Cys(Trt)-Val-OMe; configuration not given here)
3. O=c1sccc2ccccc12
4. C1CCCN(NC2=NCCO2)CC1

## Output
1: -4.4; 2: 98.7; 3: 2.5; 4: 7.3
